# Assayed system: eIF2Bα (Homo sapiens, UniProt Q14232)
# Construct: made in house; host or cells: E. coli BL21(DE3)
# Procedure summary: MIDAS (mass spectrometry integrated with equilibrium dialysis) metabolite binding screen
# Test settings: MIDAS screen, sheet eIF2Ba; metabolites screened in pools 1-4; p-value and q-value given
# Procedure: Metabolites were combined into four defined screening pools. […] To the reverse side, 300 μL of 50 μM per metabolite pool was aliquoted and sealed (metabolite chamber). Loaded dialysis plates were placed in the dark at 4 °C on a rotating shaker (120 rpm) and incubated for 40 h. Post-dialysis, metabolites were isolated from each chamber by cold methanol extraction. Each sample was analyzed in technical triplicate by FIA-MS on a SCIEX X500R QTOF MS with interspersed blanks injections. […]
We label by threshold. Values of log2(corrected fold change) strictly beneath 0.06 are fulfilled. Values of 0.06 and up are not fulfilled.

Completed entries (count: 4):
C[C@@H](O)CC(=O)O [(R)-3-Hydroxybutyric acid] ... fulfilled
O=C(O)c1cc(=O)[nH]c(=O)[nH]1 ... not fulfilled
NC(=O)CC[C@H](N)C(=O)O ... not fulfilled
O=C[C@H](O)[C@@H](O)[C@@H](O)[C@H](O)CO ... fulfilled

Now turn to the next molecule.
Identify whether the molecule CCCCC[C@H](O)/C=C/[C@H]1[C@H](O)CC(=O)[C@@H]1C/C=C\CCCC(=O)O [Prostaglandin E2] records log2(corrected fold change) below 0.06. fulfilled

----------
# Assayed system: eIF2B (Homo sapiens, UniProt P49770+Q14232+Q9UI10)
# Construct: made in house; host or cells: eIF2Bα: E. coli BL21(DE3)
# Procedure summary: eIF2B GEF activity assay, targeted, recombinant wild-type eIF2B
# Assay type: biochemical
# Test settings: dose-response with eIF2B; 95% CI 2.2-5.3 μM; read-out: EC50 of GEF activation (GDP release t1/2)
Readout: EC50

Fill in the blank: the reported EC50 of O=C(CO)[C@@H](O)[C@H](O)[C@H](O)COP(=O)(O)O [F6P, fructose-6-phosphate] is ____. 3.4 µM

----------
# Assayed system: eIF2Bα (Homo sapiens)
# Construct: made in house; host or cells: E. coli BL21(DE3)
# Sequence (Q14232 1-305): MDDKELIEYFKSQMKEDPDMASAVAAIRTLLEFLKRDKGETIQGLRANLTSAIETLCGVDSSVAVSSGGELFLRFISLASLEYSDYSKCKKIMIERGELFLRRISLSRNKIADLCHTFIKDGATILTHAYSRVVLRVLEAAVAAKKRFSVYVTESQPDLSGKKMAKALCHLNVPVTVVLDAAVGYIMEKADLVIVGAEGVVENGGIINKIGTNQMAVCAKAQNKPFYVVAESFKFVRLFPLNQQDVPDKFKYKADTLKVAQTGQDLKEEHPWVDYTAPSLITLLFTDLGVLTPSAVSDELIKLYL
# Procedure summary: MIDAS (mass spectrometry integrated with equilibrium dialysis) metabolite binding screen
# Test settings: MIDAS screen, sheet eIF2Ba; metabolites screened in pools 1-4; p-value and q-value given
log2(corrected fold change) below 0.04 gives Not satisfied; log2(corrected fold change) at or above it gives Satisfied.

Solved cases below.
O=c1ccn([C@H]2C[C@H](O)[C@@H](COP(=O)(O)OP(=O)(O)OP(=O)(O)O)O2)c(=O)[nH]1 ... Not satisfied
O=c1cc[nH]c(=O)[nH]1 ... Not satisfied
O=c1ccn([C@@H]2O[C@H](COP(=O)(O)O)[C@@H](O)[C@H]2O)c(=O)[nH]1 [UMP, Uridine monophosphate] ... Satisfied

In the following, a different compound is considered.
Threshold query (log2(corrected fold change) >= 0.04) on N[C@@H](CCC(=O)N[C@@H](CS)C(=O)O)C(=O)O Satisfied

----------
I'd be grateful if you could share measured log2(corrected fold change) for these entries.
# Assayed system: eIF2Bα (Homo sapiens)
# Construct: made in house; host or cells: E. coli BL21(DE3)
# Procedure summary: MIDAS (mass spectrometry integrated with equilibrium dialysis) metabolite binding screen
# Test settings: MIDAS metabolite binding screen with eIF2Bα; sheet "eIF2Ba"

O=C(O)CC[C@@H](O)C(=O)O [D-alpha-Hydroxyglutaric acid] ... -0.0058
CC(C)CC(=O)SCCNC(=O)CCNC(=O)[C@H](O)C(C)(C)COP(=O)(O)OP(=O)(O)OC[C@H]1O[C@@H](n2cnc3c(N)ncnc32)[C@H](O)[C@@H]1OP(=O)(O)O [Isovaleryl coenzyme A] ... 0.1853
O=C(O)[C@@H](O)[C@H](O)[C@H](O)CO [D-Arabinonic acid] ... -0.01209
N[C@H]1C(O)O[C@H](COP(=O)(O)O)[C@@H](O)[C@@H]1O (stereo partly drawn) [D-Glucosamine 6-phosphate] ... -0.005422
O=C(O)CC[C@H](O)C(=O)O [L-Hydroxyglutaric acid] ... -0.0058

Go through the items and report each one's log2(corrected fold change).
1. Cc1ncc(COP(=O)(O)O)c(CN)c1O [Pyridoxamine-5-phosphate]
2. Cc1ncc(CO)c(C=O)c1O [Pyridoxal]
3. Nc1nc2c(ncn2[C@H]2C[C@H](O)[C@@H](COP(=O)(O)OP(=O)(O)OP(=O)(O)O)O2)c(=O)[nH]1 [2-Deoxyguanosine 5-triphosphate]
4. CC[C@@H](C)[C@H](N)C(=O)O [L-Alloisoleucine]
5. Nc1ccn([C@H]2C[C@H](O)[C@@H](COP(=O)(O)OP(=O)(O)OP(=O)(O)O)O2)c(=O)n1 [Deoxycytidine triphosphate]
6. O=C(O)[C@H]1C[C@@H](O)CN1 [Cis-4-Hydroxy-D-proline]
7. Nc1ccn([C@H]2C[C@H](O)[C@@H](COP(=O)(O)OP(=O)(O)O)O2)c(=O)n1 [2-Deoxycytidine 5-diphosphate]
8. O=C(O)C[C@H](O)[C@H](O)CO [2-Deoxy-D-ribonic acid]

-0.03281
0.1009
0.05437
-0.00688
-0.0001501
0.008003
0.01712
-0.009975

----------
# Assayed system: eIF2Bα (Homo sapiens, UniProt Q14232)
# Construct: made in house; host or cells: E. coli BL21(DE3)
# Procedure summary: MIDAS (mass spectrometry integrated with equilibrium dialysis) metabolite binding screen
# Test settings: MIDAS screen, sheet eIF2Ba; metabolites screened in pools 1-4; p-value and q-value given
Readout: log2(corrected fold change)
Answers are plain numbers.

List reported log2(corrected fold change) for each of these compounds:
1. O=C(O)Cc1ccc(O)c(O)c1 [3,4-Dihydroxyphenylacetic acid]
2. O[C@@H]1[C@@H](O)[C@@H](O)CO[C@H]1O
3. CC(CCC(=O)O)C(=O)O (stereo not drawn)
4. Nc1ncnc2c1ncn2[C@@H]1O[C@H](CSCC[C@H](N)C(=O)O)[C@@H](O)[C@H]1O
5. N=C(N)NCCCC(=O)O

1: 0.1411; 2: -0.1354; 3: -0.09665; 4: -0.01949; 5: 0.2552

Would you mind listing log2(corrected fold change) for each of the following compounds?
1. CC(=O)NCCCCN
2. OC[C@@H](O)[C@@H](O)[C@H](O)[C@@H](O)CO
3. CCC(CO)C(=O)O (stereo not drawn) [2-(Hydroxymethyl)butanoic acid]

1. -0.2203
2. 0.05676
3. 0.09429

# batch size: 5; output log2(corrected fold change) per entry
1. O=C(CO)[C@@H](O)[C@@H](O)CO
2. O=C[C@H](O)COP(=O)(O)O [D-Glyceraldehyde 3-phosphate]
3. O=c1[nH]cnc2c1ncn2[C@@H]1O[C@H](COP(=O)(O)OP(=O)(O)OP(=O)(O)O)[C@@H](O)[C@H]1O [Inosine 5-triphosphate]
4. O=c1ccn([C@@H]2O[C@H](COP(=O)(O)OP(=O)(O)O)[C@@H](O)[C@H]2O)c(=O)[nH]1 [Uridine 5-diphosphate]
5. CNCC(=O)O

1. -0.1354
2. 0.09175
3. -0.2055
4. -0.03147
5. -0.1398

Parameters: items (list). Returns: log2(corrected fold change) for each item.
1. COc1cccc(C(=O)O)c1N
2. NCCCC[C@H](N)C(=O)O

1: -0.1539; 2: -0.06897

Give measured log2(corrected fold change) for every item shown.
1. NC(=O)C1=CN([C@@H]2O[C@H](COP(=O)(O)OP(=O)(O)OC[C@H]3O[C@@H](n4cnc5c(N)ncnc54)[C@H](OP(=O)(O)O)[C@@H]3O)[C@@H](O)[C@H]2O)C=CC1
2. O=P(O)(O)O[C@H]1O[C@H](CO)[C@H](O)[C@H](O)[C@H]1O [D-Galactose 1-phosphate]
3. O=C(O)CCCc1ccccc1

[-0.8133, -0.1344, 0.03839]

----------
Kindly supply the reported log2(corrected fold change) values for the records listed here.
# Assayed system: eIF2Bα (Homo sapiens)
# Construct: made in house; host or cells: E. coli BL21(DE3)
# Procedure summary: MIDAS (mass spectrometry integrated with equilibrium dialysis) metabolite binding screen
# Test settings: MIDAS metabolite binding screen with eIF2Bα; sheet "eIF2Ba"
Answers are plain numbers.

Answered cases to consult:
CC(O)CC(=O)SCCNC(=O)CCNC(=O)[C@H](O)C(C)(C)COP(=O)(O)OP(=O)(O)OC[C@H]1O[C@@H](n2cnc3c(N)ncnc32)[C@H](O)[C@@H]1OP(=O)(O)O (some centres unmarked) [3-Hydroxybutyryl coenzyme A] ... 0.00715
OC[C@H]1O[C@H](OC2[C@@H](O)[C@H](O)C(O)[C@H](O)[C@@H]2O)[C@H](O)[C@@H](O)[C@H]1O (some centres unmarked) ... -0.02052
Cc1ncc(C[n+]2csc(CCO[P@](=O)(O)OP(=O)(O)O)c2C)c(N)n1 [Thiamine pyrophosphate] ... -0.008195
CC[C@H](C)[C@H](N)C(=O)O ... -0.00688
O=C(O)c1ccoc1 ... -0.01812

Provide log2(corrected fold change) values for the following items, in order.
1. O=C(O)[C@H](O)[C@@H](O)[C@H](O)[C@H](O)CO
2. O=C(O)Cc1cnc[nH]1
3. CC(=CC(=O)O)CC(=O)O

-0.01138
0.01796
-0.01192
